test method notes: Ocular tissue concentrations (aqueous humor, vitreous humor, iris, retina, choroid, cornea) after topical ocular, subcutaneous and intravitreal administration
Type: in vivo, New Zealand White rabbits
condition notes: New Zealand White, rabbit, cornea, subcutaneous, 5 mg/kg/dose, Cornea, 4 hr, OS; sodium salt, subcutaneous 5 mg/kg/dose, Group 2; read-out: Cornea Conc. (ng/g) OS
Method: To measure the concentration of Compound 1 in plasma and ocular tissues following topical ocular, subcutaneous, and intravitreal administration, New Zealand White rabbits were administered Compound 1, and plasma and ocular samples were collected at pre-determined time points. […] Ocular tissue samples from both eyes of each animal were collected and weights were recorded. Plasma and ocular tissue sample concentrations of Compound 1 were determined by LC-MS/MS. […]
value kind: concentration at 4 h (ng/g)

INSERT INTO assay_data (molecule, reported_value) VALUES
  ('COC(=O)N[C@@H](Cc1ccccc1)C(=O)N[C@@H](Cc1ccc(NS(=O)(=O)O)cc1)c1csc(-c2cccs2)n1 [Compound 1]', 8.62);

====

test method notes: Ocular tissue concentrations (aqueous humor, vitreous humor, iris, retina, choroid, cornea) after topical ocular, subcutaneous and intravitreal administration
Assay type: in vivo, New Zealand White rabbits
condition notes: New Zealand White, rabbit, vitreous humor, topical, 1.2 mg/eye, Group 1 topical ocular 1.2 mg/eye; 0.5 hr; read-out: vitreous humor Conc., individual eyes (OD, OS)
Counter-ions that a name gives are not always drawn.
value kind: concentration at 0.5 h (ng/mL)

INSERT INTO measurements (compound, reported_value) VALUES
  ('COC(=O)N[C@@H](Cc1ccccc1)C(=O)N[C@@H](Cc1ccc(NS(=O)(=O)O)cc1)c1csc(-c2cccs2)n1 [Compound 1 sodium salt]', 0.528);

====

test method notes: Ocular tissue concentrations (aqueous humor, vitreous humor, iris, retina, choroid, cornea) after topical ocular, subcutaneous and intravitreal administration
Format: in vivo, New Zealand White rabbits
condition notes: New Zealand White, rabbit, iris homogenate, topical, 1.2 mg/eye, topical ocular 1.2 mg/eye (~0.7 mg/kg/dose); 0.5 hr; read-out: Iris homogenate Conc., individual eyes (OD, OS)
Where a name gives a salt, the structure may show the parent alone.
value kind: concentration at 0.5 hr (ng/mL)

INSERT INTO results (molecule, reported_value) VALUES
  ('COC(=O)N[C@@H](Cc1ccccc1)C(=O)N[C@@H](Cc1ccc(NS(=O)(=O)O)cc1)c1csc(-c2cccs2)n1 [Compound 1 sodium salt]', 2.55);

====

test method notes: Ocular tissue concentrations (aqueous humor, vitreous humor, iris, retina, choroid, cornea) after topical ocular, subcutaneous and intravitreal administration
Type: in vivo, New Zealand White rabbits
condition notes: New Zealand White, rabbit, choroid homogenate, subcutaneous, 5 mg/kg/dose, Choroid homogenate, 1 hr, OS; sodium salt, subcutaneous 5 mg/kg/dose, Group 2; read-out: Choroid Conc. (ng/mL) OS
value kind: concentration at 1 h (ng/mL)

INSERT INTO results (cpd_smiles, reported_value) VALUES
  ('COC(=O)N[C@@H](Cc1ccccc1)C(=O)N[C@@H](Cc1ccc(NS(=O)(=O)O)cc1)c1csc(-c2cccs2)n1', 13.1);

====

test method notes: Plasma concentrations and pharmacokinetic parameters after topical ocular, subcutaneous and intravitreal administration
Type: in vivo, New Zealand White rabbits
condition notes: New Zealand White, rabbit, plasma, other: intravitreal, 2.5 mg, plasma; intravitreal 2.5 mg/eye (~1.55 mg/kg), solution
Structures can show the parent of a compound that is named as a salt.
value kind: MRT last

INSERT INTO results (molecule, reported_value) VALUES
  ('COC(=O)N[C@@H](Cc1ccccc1)C(=O)N[C@@H](Cc1ccc(NS(=O)(=O)O)cc1)c1csc(-c2cccs2)n1 [Compound 1 sodium salt]', '15.1 h');
